Sodium-dependent dopamine transporter (Homo sapiens, UniProt Q01959) data, read-out Ki
Sequence (Q01959 whole entry): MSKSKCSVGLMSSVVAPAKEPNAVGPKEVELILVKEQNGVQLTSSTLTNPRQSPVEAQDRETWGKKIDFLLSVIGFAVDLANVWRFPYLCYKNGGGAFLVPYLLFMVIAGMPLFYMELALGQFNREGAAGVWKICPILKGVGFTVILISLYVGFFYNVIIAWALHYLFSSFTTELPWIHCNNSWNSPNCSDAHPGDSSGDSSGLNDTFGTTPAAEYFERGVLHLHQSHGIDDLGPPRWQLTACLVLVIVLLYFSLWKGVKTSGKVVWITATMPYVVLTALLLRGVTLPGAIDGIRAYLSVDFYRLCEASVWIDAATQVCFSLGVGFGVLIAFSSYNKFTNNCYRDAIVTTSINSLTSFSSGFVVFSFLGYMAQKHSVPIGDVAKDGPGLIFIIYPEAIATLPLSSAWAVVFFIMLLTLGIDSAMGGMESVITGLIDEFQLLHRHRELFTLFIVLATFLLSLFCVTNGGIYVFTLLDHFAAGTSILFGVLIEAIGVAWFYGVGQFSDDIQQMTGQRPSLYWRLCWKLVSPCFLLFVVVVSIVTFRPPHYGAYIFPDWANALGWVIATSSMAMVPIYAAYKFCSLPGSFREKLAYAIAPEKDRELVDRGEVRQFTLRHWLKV

Worked examples, 5 molecules total:
Fc1cccc(F)c1Oc1cccc(F)c1OC1CNC1 = > 6.41 µM
Fc1cccc(Cl)c1Oc1cccc(F)c1O[C@@H]1CCNC1 = > 5.87 µM
Fc1ccccc1Oc1cccc(F)c1OC1CCNCC1 = 2.19 µM
Cc1cccc(F)c1Oc1cccc(F)c1OC1CCNC1 (stereo not drawn) = > 6.46 µM
Fc1cccc(Oc2ccccc2Cl)c1OC1CNC1 = 4.7 µM

Reported Ki, molecule `Cc1cccc(Cl)c1Oc1cccc(F)c1OC1CNC1` : ____ > 6.41 µM

Reported Ki, molecule `Fc1cccc(Cl)c1Oc1cccc(F)c1O[C@H]1CCNC1` : ____ > 5.87 µM

Reported Ki, molecule `Fc1cccc(Oc2c(Cl)cccc2Cl)c1OC1CNC1` : ____ > 5.94 µM

Reported Ki, molecule Fc1ccccc1Oc1cccc(F)c1OC1CCCNC1 (stereo not drawn) : ____ > 5.59 µM

Reported Ki, molecule Fc1ccccc1Oc1ccccc1OC1CCNC1 (stereo not drawn) : ____ > 6.22 µM

Reported Ki, molecule Fc1cccc(Cl)c1Oc1cccc(F)c1OC1CCNC1 (stereo not drawn) : ____ > 6.46 µM

Reported Ki, molecule `Cc1cccc(F)c1Oc1cccc(F)c1OC1CNC1` : ____ > 6.46 µM

Reported Ki, molecule `Fc1cccc(Cl)c1Oc1ncccc1OC1CNC1` : ____ > 4.26 µM

---

TEST_SYSTEM: Sodium-dependent noradrenaline transporter (Homo sapiens, UniProt P23975)
Sequence (P23975 whole entry): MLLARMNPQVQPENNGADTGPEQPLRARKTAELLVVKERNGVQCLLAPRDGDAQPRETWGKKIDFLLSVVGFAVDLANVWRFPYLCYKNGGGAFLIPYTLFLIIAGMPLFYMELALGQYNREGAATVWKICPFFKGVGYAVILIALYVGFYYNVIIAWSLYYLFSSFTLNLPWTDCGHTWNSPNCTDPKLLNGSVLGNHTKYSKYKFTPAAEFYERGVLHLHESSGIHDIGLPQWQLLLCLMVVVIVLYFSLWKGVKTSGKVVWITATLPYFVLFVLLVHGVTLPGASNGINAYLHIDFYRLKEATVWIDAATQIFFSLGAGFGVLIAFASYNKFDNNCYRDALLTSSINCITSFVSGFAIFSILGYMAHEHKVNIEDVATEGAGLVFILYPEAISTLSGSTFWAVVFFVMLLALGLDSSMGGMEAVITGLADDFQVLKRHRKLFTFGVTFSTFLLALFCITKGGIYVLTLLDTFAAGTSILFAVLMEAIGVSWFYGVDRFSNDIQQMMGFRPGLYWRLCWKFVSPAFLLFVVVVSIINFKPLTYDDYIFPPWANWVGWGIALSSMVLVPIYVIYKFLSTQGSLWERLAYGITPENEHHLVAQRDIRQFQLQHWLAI
// returns NO unless Ki is strictly below 500 nM, in which case YES

Criterion: Ki strictly below 500 nM. Is it met by Fc1cccc(Cl)c1Oc1ncccc1OC1CCNC1 (configuration not stated) ? NO

Criterion: Ki strictly below 500 nM. Is it met by Fc1cccc(Cl)c1Oc1cccc(F)c1OC1CCNC1 (configuration not stated) ? YES

Criterion: Ki strictly below 500 nM. Is it met by `Fc1cccc(Oc2c(Cl)cccc2Cl)c1OC1CNC1` ? YES

---

Sodium-dependent serotonin transporter (Homo sapiens) data, read-out Ki
Sequence (P31645 whole entry): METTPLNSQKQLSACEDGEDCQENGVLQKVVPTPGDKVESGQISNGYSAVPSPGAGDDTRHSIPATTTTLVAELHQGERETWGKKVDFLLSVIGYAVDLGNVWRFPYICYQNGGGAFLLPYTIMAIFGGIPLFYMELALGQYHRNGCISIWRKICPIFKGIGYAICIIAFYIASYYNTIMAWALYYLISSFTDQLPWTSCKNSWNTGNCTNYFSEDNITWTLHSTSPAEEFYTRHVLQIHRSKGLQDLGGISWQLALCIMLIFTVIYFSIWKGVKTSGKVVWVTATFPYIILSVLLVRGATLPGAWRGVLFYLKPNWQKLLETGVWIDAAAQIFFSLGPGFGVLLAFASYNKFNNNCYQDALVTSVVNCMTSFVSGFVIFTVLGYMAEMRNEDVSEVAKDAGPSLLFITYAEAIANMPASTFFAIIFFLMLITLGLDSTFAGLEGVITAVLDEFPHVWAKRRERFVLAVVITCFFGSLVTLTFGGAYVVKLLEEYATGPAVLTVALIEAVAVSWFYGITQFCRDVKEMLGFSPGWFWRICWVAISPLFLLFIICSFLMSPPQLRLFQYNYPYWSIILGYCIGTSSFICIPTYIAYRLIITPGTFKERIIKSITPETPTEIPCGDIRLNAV

Worked examples, 3 compounds total:
Fc1cccc(Oc2ccccc2Cl)c1OC1CNC1 = 1710 nM
Fc1ccccc1Oc1ccccc1OC1CCNC1 (stereo not drawn) = > 4710 nM
Fc1cccc(Oc2cccc(Cl)c2Cl)c1OC1CNC1 = 94 nM

Reported Ki, compound `Fc1ccccc1Oc1ccccc1OC1CCNCC1` : ____ > 4710 nM

Reported Ki, compound `Fc1cccc(Cl)c1Oc1cccc(F)c1O[C@H]1CCNC1` : ____ > 4530 nM

Reported Ki, compound `Cc1cccc(F)c1Oc1cccc(F)c1OC1CNC1` : ____ 1160 nM

Reported Ki, compound `Fc1cccc(Oc2c(Cl)cccc2Cl)c1OC1CNC1` : ____ > 4620 nM

Reported Ki, compound `Fc1cccc(F)c1Oc1cccc(F)c1OC1CNC1` : ____ > 4620 nM

---

METHOD: Half life in dog at 5 mg/kg, po
Assay type: ADME, organism-based, Canis lupus familiaris
Set-up: dose 5 mg/kg, route oral
CONDITION_PARAMETERS: in vivo
Listed below: half-life values for each entry.
Just the number please, in h, no unit attached.

Worked examples, 2 molecules total:
Fc1cccc(Cl)c1Oc1cccc(F)c1OC1CNC1 = 2.35
Cc1cccc(F)c1Oc1cccc(F)c1OC1CNC1 = 3.01

Pending molecule:
Reported half-life, molecule `Fc1cccc(Cl)c1Oc1cccc(F)c1O[C@@H]1CCNC1` : ____ 1.85
